Reported ED50 values are given for each entry in this list.
Tested on: Rattus norvegicus
Protocol Summary: Anti-inflammatory activity against carrageenan-induced edema in Sprague-Dawley rat paw after 3 hrs of 30 mg/kg, po
Assay type: functional
Readout Kind: ED50 (mg/kg)

>>> val("COc1cc(C(=O)C#Cc2ccc(S(C)(=O)=O)cc2)cc(OC)c1OC")
113
>>> val("CS(=O)(=O)c1ccc(C#CC(=O)c2ccc(C#N)cc2)cc1")
90
>>> val("CC(=O)Oc1ccccc1C(=O)O")
129
>>> val("CS(=O)(=O)c1ccc(C#CC(=O)c2ccc(O)cc2)cc1")
51.3
>>> val("CC(Cc1ccc(O)c(O)c1)C(C)Cc1ccc(O)c(O)c1 (configuration not stated) [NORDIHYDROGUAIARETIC ACID]")
205
>>> val("CC(C)c1ccc(C(=O)C#Cc2ccc(S(C)(=O)=O)cc2)cc1")
35
>>> val("COc1ccc(C(=O)C#Cc2ccc(S(C)(=O)=O)cc2)cc1")
60.1

* * *

Target System: Seed linoleate 13S-lipoxygenase-1 (Glycine max, UniProt P08170)
Sequence (P08170 whole entry): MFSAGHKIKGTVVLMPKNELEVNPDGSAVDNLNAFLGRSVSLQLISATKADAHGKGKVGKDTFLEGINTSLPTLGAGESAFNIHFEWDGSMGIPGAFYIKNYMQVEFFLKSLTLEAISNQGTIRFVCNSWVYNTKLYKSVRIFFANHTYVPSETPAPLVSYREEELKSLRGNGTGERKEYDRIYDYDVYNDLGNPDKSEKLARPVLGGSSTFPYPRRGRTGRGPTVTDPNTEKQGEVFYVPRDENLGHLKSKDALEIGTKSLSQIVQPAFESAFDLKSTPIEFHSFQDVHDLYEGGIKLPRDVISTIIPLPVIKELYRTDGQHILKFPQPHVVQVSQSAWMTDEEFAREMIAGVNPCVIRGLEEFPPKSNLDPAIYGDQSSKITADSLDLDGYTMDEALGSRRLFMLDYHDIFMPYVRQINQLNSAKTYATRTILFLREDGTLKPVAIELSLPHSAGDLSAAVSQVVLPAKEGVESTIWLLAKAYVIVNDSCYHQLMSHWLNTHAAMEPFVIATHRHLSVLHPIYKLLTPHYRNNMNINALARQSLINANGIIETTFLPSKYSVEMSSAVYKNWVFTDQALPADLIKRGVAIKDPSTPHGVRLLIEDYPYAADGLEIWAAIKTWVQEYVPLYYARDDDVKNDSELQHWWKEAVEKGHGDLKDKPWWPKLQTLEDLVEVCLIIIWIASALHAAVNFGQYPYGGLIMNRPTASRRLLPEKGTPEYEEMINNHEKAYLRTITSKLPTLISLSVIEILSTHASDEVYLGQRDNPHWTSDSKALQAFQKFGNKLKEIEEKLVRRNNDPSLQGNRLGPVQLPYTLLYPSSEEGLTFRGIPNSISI
Readout Kind: IC50 (µM)

>>> val("COC(=O)c1ccc(C(=O)C#Cc2ccc(S(C)(=O)=O)cc2)cc1")
5
>>> val("CC(C)c1ccc(C(=O)C#Cc2ccc(S(C)(=O)=O)cc2)cc1")
0.36
>>> val("CCCc1ccc(C(=O)C#Cc2ccc(S(C)(=O)=O)cc2)cc1")
3.2
>>> val("CSc1ccc(C(=O)C#Cc2ccc(S(C)(=O)=O)cc2)cc1")
0.36
>>> val("COc1ccc(C(=O)C#Cc2ccc(S(C)(=O)=O)cc2)c2ccccc12")
0.3
>>> val("CS(=O)(=O)c1ccc(C#CC(=O)c2cccc([N+](=O)[O-])c2)cc1")
3.5
